These measurements were taken from the supplement of paper PMC10567573.

B1: KRT15 (parent)
chain: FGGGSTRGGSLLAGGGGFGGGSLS

# Variants of: B1
# MEASUREMENT NOTES: protein stability index of a GFP-peptide fusion (GPS, HEK-293T) (PSI 1-6); higher = more stable;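 also: lentivirally expressed fusions sorted by FACS into six bins by GFP to DsRed ratio, PSI derived from sequencing read proportions per bin multiplied by bin number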
# CONDITIONS USED: c terminus: a fixed tail appended
PROPERTY: protein stability index
// print number alone

These recorded examples may help you get a feel for the data.
- MUTATION CODE: "A13M"
  protein stability index: 2.13
- MUTATION CODE: "G3L"
  protein stability index: 2.42
- MUTATION CODE: "G8E"
  protein stability index: 1.64
- MUTATION CODE: "L12R"
  protein stability index: 3.6
- MUTATION CODE: "G2N"
  protein stability index: 2.94

## Task Fill in: protein stability index of "G14I" is ___
## Result 1.85

## Task Param item = "S5P" ; retrieve measured protein stability index.
## Result 1.53

## Task Fill in: protein stability index of "G15R" is ___
## Result 2.08
